Please provide measured ALT for the entries that follow.
# Species on record: Rattus norvegicus
# Assay Remarks: Open TG-GATES - Regimen: Daily Repeat
# Format: toxicity, organism-based, Sprague-Dawley
# Parameters: regimen Daily Repeat, gender Male, age 6 weeks
# Condition Label: in vivo, po, 0 mg/kg, 72 h, tissue Plasma, route gavage, dose level Control, time 3 day
State the answer as a number, implicitly in IU/L.

So for CC(C)C(=O)Nc1ccc([N+](=O)[O-])c(C(F)(F)F)c1 [FLUTAMIDE] , the logged ALT turned out to be 41.6

So for CCSCC[C@H](N)C(=O)O , the logged ALT turned out to be 35.6

So for CCC(C)(C)C(=O)O[C@H]1C[C@@H](C)C=C2C=C[C@H](C)[C@H](CC[C@@H]3C[C@@H](O)CC(=O)O3)[C@H]21 , the logged ALT turned out to be 36.6

So for O=C(O)c1cccnc1 , the logged ALT turned out to be 48

So for C#C[C@]1(O)CC[C@H]2[C@@H]3CCc4cc(O)ccc4[C@H]3CC[C@@]21C , the logged ALT turned out to be 49.6

So for O=C(N[C@H](CO)[C@H](O)c1ccc([N+](=O)[O-])cc1)C(Cl)Cl , the logged ALT turned out to be 44

So for CN1C(=O)OC(C)(C)C1=O , the logged ALT turned out to be 47.4

So for CCc1oc2ccccc2c1C(=O)c1cc(I)c(O)c(I)c1 , the logged ALT turned out to be 39

So for CC(=O)Oc1cc(C(C)C)c(OCCN(C)C)cc1C , the logged ALT turned out to be 42.8

So for Oc1ncnc2[nH]ncc12 , the logged ALT turned out to be 34.2

So for Nc1nc(N)c2nc(-c3ccccc3)c(N)nc2n1 , the logged ALT turned out to be 41.4

So for CC(C)(S)[C@@H](N)C(=O)O , the logged ALT turned out to be 43.4

So for CC(=N)S [THIOACETAMIDE] , the logged ALT turned out to be 31

So for CCN1CCCC1CNC(=O)c1cc(S(N)(=O)=O)ccc1OC (stereo unspecified) [SULPIRIDE] , the logged ALT turned out to be 44.8

So for C[C@]12CCC(=O)C=C1CC[C@@H]1[C@@H]2CC[C@@]2(C)[C@H]1CC[C@]2(C)O , the logged ALT turned out to be 45.6

So for C[C@](N)(Cc1ccc(O)c(O)c1)C(=O)O , the logged ALT turned out to be 59.4
